Below is a list of entries, each paired with its recorded IC50 value.
- study system: human MER (528-end) (Homo sapiens, UniProt Q12866)
- Construct: human MER (528-end); purchased Camnabio, Japan
- Sequence (Q12866 528-999 limits assumed): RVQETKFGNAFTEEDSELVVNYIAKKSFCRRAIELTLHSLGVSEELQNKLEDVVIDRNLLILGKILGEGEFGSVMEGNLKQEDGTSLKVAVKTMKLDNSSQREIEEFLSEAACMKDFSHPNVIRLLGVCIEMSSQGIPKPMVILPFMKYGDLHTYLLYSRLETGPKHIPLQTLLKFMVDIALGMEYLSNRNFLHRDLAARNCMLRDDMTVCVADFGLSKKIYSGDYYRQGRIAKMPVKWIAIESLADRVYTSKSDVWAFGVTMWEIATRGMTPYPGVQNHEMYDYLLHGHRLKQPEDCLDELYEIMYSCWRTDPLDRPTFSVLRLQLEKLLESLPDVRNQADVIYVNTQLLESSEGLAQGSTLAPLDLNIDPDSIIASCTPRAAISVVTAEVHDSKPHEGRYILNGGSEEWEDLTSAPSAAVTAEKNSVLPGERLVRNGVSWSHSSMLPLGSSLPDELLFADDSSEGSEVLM
- protocol: HTRF kinase activity biochemical assay, MER
- assay setup: 10 μM ATP, 30 minutes pre-incubation; read-out: HTRF MERTK IC50
parameter measured: IC50

{"molecule": "Nc1ncc(C(F)(F)F)cc1C(=O)N[C@H]1CCC[C@@H]1OCc1ccc(-c2ccc3c(c2)CCCC3N2CCN(CCO)CC2)cc1 (stereo partly drawn) [Example 124]", "study system": "human MER (528-end) (Homo sapiens, UniProt Q12866)", "parameter measured": "IC50", "value measured": "< 10 nM"}
{"molecule": "CN1CCN(C2CCCc3cc(-c4ccc(CO[C@H]5CCC[C@@H]5NC(=O)c5cc(-c6cnn(C)c6)cnc5N)cc4)ccc32)CC1 (stereo partly drawn) [Example 120]", "study system": "human MER (528-end) (Homo sapiens, UniProt Q12866)", "parameter measured": "IC50", "value measured": "< 10 nM"}
{"molecule": "CC1(C)C[C@H](N2CCN(CCO)CC2)c2ccc(-c3ccc(CO[C@H]4CCC[C@@H]4NC(=O)c4cc(-c5ccc(F)nc5)cnc4N)cc3)cc21 [Example 104]", "study system": "human MER (528-end) (Homo sapiens, UniProt Q12866)", "parameter measured": "IC50", "value measured": "< 10 nM"}
{"molecule": "COc1ccnc(N)c1C(=O)N[C@H]1CCC[C@@H]1OCc1ccc(-c2ccc3c(c2)CC[C@@H]3N2CCN(C)CC2)cc1 [Example 139]", "study system": "human MER (528-end) (Homo sapiens, UniProt Q12866)", "parameter measured": "IC50", "value measured": "< 10 nM"}
{"molecule": "CN1CC(C)(C)c2cc(-c3ccc(CO[C@H]4CCC[C@@H]4NC(=O)c4cc(-c5cnn(C)c5)cnc4N)cc3)ccc21 [Example 17]", "study system": "human MER (528-end) (Homo sapiens, UniProt Q12866)", "parameter measured": "IC50", "value measured": "10 to 100 nM"}
{"molecule": "Nc1ncc(-c2ccc(F)nc2)cc1C(=O)N[C@H]1CCC[C@@H]1OCc1ccc(-c2ccc3c(c2)CCCC3N2CCN(CCO)CC2)cc1 (stereo partly drawn) [Example 106]", "study system": "human MER (528-end) (Homo sapiens, UniProt Q12866)", "parameter measured": "IC50", "value measured": "< 10 nM"}
